# Tested on: Escherichia coli TOP10
# protocolNotes: shrunken log2 fold change of peptide-encoding DNA abundance (4.5 h post-induction vs induction); higher = less antimicrobial activity (less host growth inhibition)
# testSettings: time post-induction: 4.5 h; library: site-saturation at positions 5, 18, 19, 20
measurementType: shrunken log2 fold change
Note: the reply should be a number with no unit written.

INSERT INTO measurements (itemsequence, observedmeasurement) VALUES
  ('RRIRKRPPRLPRPRPRPSPLPRP', 0.446);

Field: next sequence
Problem: Name the reported shrunken log2 fold change value associated with the sequence `RRIRTRPPRLPRPRPRPALTPRP`
Result: 0.251

---

# System: Escherichia coli TOP10;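 also: peptides expressed intracellularly from a pBAD plasmid library in pooled LB shake-flask culture, induced with 0.3% L-arabinose, DNA abundance read by NGS, three biological replicates, DESeq2 with apeglm shrinkage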
# protocolNotes: shrunken log2 fold change of peptide-encoding DNA abundance (4.5 h post-induction vs induction); higher = less antimicrobial activity (less host growth inhibition)
# testSettings: time post-induction: 4.5 h; library: site-saturation at positions 5, 18, 19, 20
measurementType: shrunken log2 fold change

Problem: What measured shrunken log2 fold change goes with `RRIRPRPPRLPRPRPRPDSVPRP` ?
Result: 0.195

Problem: Now consider `RRIRVRPPRLPRPRPRPQQRPRP` .
Result: 0.0774

Problem: How about this sequence: `RRIRWRPPRLPRPRPRPKTWPRP`
Result: 0.325

Problem: Ok, now `RRIRNRPPRLPRPRPRPWLYPRP`
Result: -0.00103

Problem: And for `RRIRERPPRLPRPRPRPHRRPRP` ?
Result: 0.0407

Problem: Likewise for `RRIRKRPPRLPRPRPRPPMTPRP` ?
Result: -0.00191

Problem: Same read-out for `RRIRVRPPRLPRPRPRPWWRPRP` ?
Result: 1.25

Problem: Then `RRIRWRPPRLPRPRPRPCKPPRP` ?
Result: 0.119

Problem: Please answer likewise for `RRIRGRPPRLPRPRPRPWDDPRP`
Result: 0.137

Problem: What do you have for `RRIRHRPPRLPRPRPRPGVSPRP` ?
Result: 0.0185

Problem: Query `RRIRGRPPRLPRPRPRPGFSPRP` next
Result: 0.644

Problem: And then `RRIRRRPPRLPRPRPRPFGPPRP` , what is it?
Result: 0.165

Problem: Now give it for `RRIRLRPPRLPRPRPRPGWLPRP` too.
Result: 0.0878

Problem: Now the same for `RRIRGRPPRLPRPRPRPDQIPRP`
Result: 0.167

Problem: // repeat for `RRIRQRPPRLPRPRPRPVLRPRP` and report
Result: -0.027

Problem: Next sequence up: `RRIRERPPRLPRPRPRPSGHPRP`
Result: -0.289

Cited source: the supplement of paper PMC9112550
